Test system: M. tuberculosis H37Rv-GFP
Assay notes: microbe, parasite or virus in culture
Format: cell-based
Details: Mycobacterium tuberculosis, read-out: QUM Confirm % Inhibition 2 uM
Mark 0.0 for inhibition at 2 µM values under 50%, and 1.0 for everything at or above.

stdin: Could you please find out whether `C/C(=N\NOCc1cc([N+](=O)[O-])cc([N+](=O)[O-])c1)c1ccccc1` has inhibition at 2 µM that meets 50% or exceeds it?
stdout: 0.0

stdin: Is the recorded value of inhibition at 2 µM equal to or greater than 50% for this compound? `CCCCc1ccc(/C=N/NC(=O)c2ccncc2)cc1`
stdout: 1.0

stdin: Can `CCc1nnc(NS(=O)(=O)c2ccc(N)cc2)s1` be said to have inhibition at 2 µM at or above 50%?
stdout: 0.0

stdin: Confirm if inhibition at 2 µM reported for the compound `O=C(N/N=C/c1cc(Br)cc(Br)c1O)c1ccncc1` is 50% or above.
stdout: 0.0

stdin: Exam item: decide whether the reported inhibition at 2 µM for `O=C(Nc1ccc([N+](=O)[O-])cc1)C12CC3CC(CC(C3)C1)C2` is at least 50%.
stdout: 0.0

====

Test system: Raw264.7 cells
Assay notes: Cell number (CellNb) from image analysis of the phenotypic cell-based assay
Details: confirmation, 0.2 uM
Readout label: QIM Confirm CellNb 0.2 uM
Hey, just send me the number, nothing else.

stdin: Which measured QIM Confirm CellNb 0.2 uM value corresponds to `O=C(NN=C1CCCC1)c1ccncc1` ?
stdout: 412.6

stdin: // QIM Confirm CellNb 0.2 uM lookup, key: `O=C(NCc1ccc2c(c1)OCO2)c1cc([N+](=O)[O-])cc([N+](=O)[O-])c1`
stdout: 429.3

stdin: Sample `O=C1c2ccccc2-c2nc3nonc3nc21` — what was its QIM Confirm CellNb 0.2 uM?
stdout: 248.8

stdin: QIM Confirm CellNb 0.2 uM lookup needed for `O=C(NCCOc1ccccc1Cl)c1cc([N+](=O)[O-])cc([N+](=O)[O-])c1` , thanks.
stdout: 267.0

stdin: # get_value(readout='QIM Confirm CellNb 0.2 uM', item= `CCCCS(=O)(=O)/C=C\C=C\S(=O)(=O)CCCC` )
stdout: 267.4

stdin: Any idea what QIM Confirm CellNb 0.2 uM was measured for `O=C(N/N=C/C=C/c1ccccc1)c1ccncc1` ?
stdout: 400.1

stdin: Request the reported QIM Confirm CellNb 0.2 uM associated with `C/C(=N/NC(=O)c1ccncc1)c1cccs1`
stdout: 232.6

stdin: # get_value(readout='QIM Confirm CellNb 0.2 uM', item= `O=C(Nc1ccc([N+](=O)[O-])cc1)C12CC3CC(CC(C3)C1)C2` )
stdout: 315.6

stdin: Please look up its QIM Confirm CellNb 0.2 uM: `O=C(N/N=C/c1cccc([N+](=O)[O-])c1)c1ccncc1`
stdout: 479.8

stdin: So what's the measured QIM Confirm CellNb 0.2 uM for this one? `CC(C)(C)C(=O)Nc1ccccc1C(=O)N1CCOCC1`
stdout: 305.3

stdin: Looking for the measured QIM Confirm CellNb 0.2 uM of O=C(Nc1ccc(Oc2ccccc2)cc1)C1CCCO1 (stereo not shown) , can you help?
stdout: 296.1

stdin: Given the molecule `CN1CCN(c2nc(Nc3ccc(OC(F)(F)F)cc3)nc(OCC(F)(F)F)n2)CC1` , what is its reported QIM Confirm CellNb 0.2 uM?
stdout: 292.9

stdin: What QIM Confirm CellNb 0.2 uM value was documented for this molecule, `C/C(=N\NOCc1cc([N+](=O)[O-])cc([N+](=O)[O-])c1)c1ccccc1` ?
stdout: 247.1

stdin: Which QIM Confirm CellNb 0.2 uM value is on record for `O=C(N/N=C/c1cccc2ccccc12)c1ccncc1` ?
stdout: 386.9

stdin: Given the molecule `Brc1ccc(/C=N/Nc2nc(N3CCOCC3)nc(N3CCOCC3)n2)o1` , what is its reported QIM Confirm CellNb 0.2 uM?
stdout: 259.6

stdin: Bench note: what QIM Confirm CellNb 0.2 uM did `O=C(CSc1cccs1)Nc1nccs1` show?
stdout: 315.9

stdin: What value of QIM Confirm CellNb 0.2 uM has been recorded for this entry: `CCc1nnc(NS(=O)(=O)c2ccc(N)cc2)s1`
stdout: 292.3

stdin: Name the reported QIM Confirm CellNb 0.2 uM value associated with the molecule `N#Cc1ccccc1NC(=O)CSc1nc2ccccc2s1`
stdout: 288.5

stdin: Item under review: `O=C(N/N=C/c1cc(Br)cc(Br)c1O)c1ccncc1` . Reported QIM Confirm CellNb 0.2 uM?
stdout: 264.8
